tested on: MCF7; test: NCI tumour cell line growth inhibition, 48 h
Calls of active or inactive are those of the source. Rule as the data show it: active = GI50 up to about 1.1 µM and inactive = higher.
Respond with a class label; see active, inactive

Worked examples, 3 molecules total:
{"columns": ["molecule", "answer label"],
 "data": [
  ["CN1COCc2c1ccc1cc3ccc4c(c3nc21)COCN4S(C)(=O)=O", "active"],
  ["NCCCNC1(c2cc3ccccc3s2)CCCCC1", "inactive"],
  ["CC1CN=C(N(C(=O)Nc2ccc(Cl)c(Cl)c2)c2ccccc2)S1 (stereo not given)", "inactive"]
]}

(Q) Hey, what did the test say about COc1ccc2c(c1)CCC(CN1CCN(CCOC(c3ccc(F)cc3)c3ccc(F)cc3)CC1)=C2 ?
(A) inactive

(Q) For this molecule, state the assay outcome: c1ccc2nc3c(nc2c1)sc1nc2ccccc2n13
(A) active

(Q) Hi, sorry to bother you, what did the test record for C[N+]1([O-])CCC(O)(C2CC2)CC1 (stereo not given) ?
(A) inactive

(Q) // return assay outcome for COc1cccc2c1C(=O)c1c(O)c3c(c(O)c1C2=O)C[C@@](O)(C(=O)CO)C[C@@H]3OC1CC(N)CC(C)O1 (stereo not given in full)
(A) active

(Q) Which outcome did this test record for the molecule Cc1oc(N)c(S(=O)(=O)c2cc3ccccc3[n+]([O-])c2N)c1C ?
(A) inactive

(Q) Dear all, I need the recorded test outcome for O=C1N=C(Nc2ccccc2Cl)N/C1=C\c1ccc(Cl)cc1Cl , thank you.
(A) inactive

(Q) GET /call?item= CC(=O)O[C@H]1[C@H](OC(=O)CC(C)(O)CC(=O)O)C[C@]2(C)C3=C(CCC2C1(C)C)[C@]1(C)CC[C@H]([C@H]2CC[C@H](C(C)(C)O)OC2O)[C@@]1(C)[C@@H](O)C3 (stereo not given in full) returns the recorded outcome of this test.
(A) inactive

(Q) # fetch the recorded call for C#CCCCC(=C)C[C@@H]1OC(=O)[C@H](C)[C@@H]1O here
(A) inactive

(Q) What outcome does the record of this test show for CCCCC/C=C\C=C1\C(=O)C=C[C@@H]1C/C=C\CCCC(=O)O ?
(A) inactive

(Q) // outcome(item) with item = COc1ccc(C(=O)c2[nH]c(Nc3ccc(Cl)cc3)c(C(=S)Nc3ccccc3)c2N)cc1
(A) inactive

(Q) Record lookup: outcome of this test for C=C(C)C1Cc2c(cc3c(c2O)c(=O)c2ccccc2n3C)O1 (stereo not given) ?
(A) inactive

(Q) Please state the recorded outcome for this molecule: CCN(CC)CCCNC(=O)c1cc2cc(NC(=O)c3cc4cc([N+](=O)[O-])ccc4[nH]3)ccc2[nH]1
(A) inactive

(Q) What call does the record list for O=c1c2sc3ccccc3sc=2c(=O)c2c(Cl)c(Cl)c(Cl)c(Cl)c12 ?
(A) inactive

(Q) Assay outcome for C/C=C1\CN(C(=O)OC(C)(C)C)C1C(=O)OC(C)(C)C (stereo not given) : what was it?
(A) inactive

(Q) Field: outcome | Entry: COc1ccc(NC(=O)NNS(=O)(=O)c2ccc(C)cc2)cc1
(A) inactive

(Q) Just curious, what result did Cc1c2ccccc2cc2nc3ccccc3n12 get here?
(A) inactive

(Q) Fill in: this test's call for CC1(C)OC(CCO)CN1C(=O)OCc1ccccc1 (stereo not given) is ___
(A) inactive

* * *

tested on: PC-3; test: NCI tumour cell line growth inhibition, 48 h
Calls of active or inactive are those of the source. No stated cut-off is given here; in the data, active = GI50 up to about 1.1 µM and inactive = higher.
The categories you may choose from are active, inactive

Recorded results for 3 molecules are shown here.
{"columns": ["molecule", "answer label"],
 "data": [
  ["Nc1nc(=S)[nH]c2nc3c(c(-c4ccccc4)c12)CCCC3", "inactive"],
  ["C/C=C1/C[C@@H](C)[C@@](C)(O)C(=O)OCC2=CC[N+]3([O-])CC[C@@H](OC1=O)[C@@H]23 (stereo partly drawn) [SENECIONINE N-OXIDE]", "inactive"],
  ["COC1/C=C/C(C)C(C(C)C(OC)C(C)CCC(=O)C(C)C(C/C=C/N(C)C=O)OC)OC(=O)C=CC2OC2(C)CC(OC)C(OC)C2=CC(=O)O[C@@H](C(C)C(OC)CC(OC)/C=C/C(C)C(O)C1)[C@H]2O (stereo partly drawn)", "active"]
]}

(Q) Hi team, can someone confirm the assay call for CC1(C)N=C(C2CCCN2C(=O)OCc2ccccc2)OC1=O (stereo not drawn) ?
(A) inactive

(Q) Test call, this molecule: C[N+]1([O-])CCC(O)(C2CC2)CC1 (stereo not drawn)
(A) inactive

(Q) Please share the test call associated with COc1cc(/C=C2\CCC(C)C3=C2N=c2s/c(=C/c4ccc(Cl)cc4)c(=O)n2C3c2cc(OC)c(OC)c(OC)c2)cc(OC)c1OC (stereo not drawn) .
(A) inactive
